Tested on: BROTE: downy brome (Bromus tectorum)
Assay overview: Post-emergent Test III, herbicidal activity in wheat and barley
Assay type: in vivo
Study conditions: probit analysis, dose for growth reduction of 80 percent, 21 days after application
Outcome measure: GR80 BROTE

As a guide, the following entries are already answered.
{"Molecule": "COC(=O)c1nc(-c2ccc(C#N)cc2)c(F)c(N)c1Cl", "Measurement target": "BROTE: downy brome (Bromus tectorum)", "GR80 BROTE": ">140 g ai/ha"}
{"Molecule": "Nc1c(F)c(-c2ccc(I)cc2)nc(C(=O)O)c1Cl", "Measurement target": "BROTE: downy brome (Bromus tectorum)", "GR80 BROTE": "36 g ai/ha"}
{"Molecule": "COC(=O)c1nc(-c2ccc(F)c(F)c2F)c(F)c(N)c1Cl", "Measurement target": "BROTE: downy brome (Bromus tectorum)", "GR80 BROTE": ">140 g ai/ha"}

Reported GR80 BROTE of COC(=O)c1nc(-c2ccc(OC(F)F)cc2)c(F)c(N)c1Cl : >140 g ai/ha

Query COC(=O)c1nc(-c2ccc(C(F)F)cc2)c(F)c(N)c1Cl yields GR80 BROTE of >140 g ai/ha

// recorded GR80 BROTE for COC(=O)c1nc(-c2ccc(Br)c(F)c2F)cc(N)c1Cl : >140 g ai/ha

Entry source: patent US9113629B2
